experiment_summary: gradient 5% acetonitrile 3 min, to 50% in 2 min, to 85% in 15 min, held 3 min, 100 µL/min
assay_context: column: Zorbax Extend-C18 2.1 x 50 mm; eluents: water / acetonitrile, 0.1% formic acid

molecule | unit_spec | RP-LC retention time
O=S(=O)(c1cc(F)cc(F)c1)N1CCC(c2noc(-c3ccc(F)cc3)n2)CC1 | s | 1170
O=C(NCCC1CCN(S(=O)(=O)c2ccccc2)CC1)Nc1cc(F)ccc1F | s | 960
O=C(Nc1ccc(F)c(F)c1)C1CCN(c2cc(N3CCSCC3)ncn2)CC1 | s | 709
O=C(NCC(O)(c1ccccc1)C(F)(F)F)C(=O)Nc1ccon1 (stereo not given) | s | 738
Cc1ccc2ncn(C3CCN(S(=O)(=O)c4ccc(F)cc4F)CC3)c(=O)c2c1 | s | 904
O=C(NC1CCN(c2cc(N3CCCC3)cnn2)C1)C1CC1 (stereo not given) | s | 578
COc1ccc(Nc2c(-c3ccc(OC)c(OC)c3)nc3cnccn23)cc1 | s | 730
COc1ccc(-c2nc3cnccn3c2NCc2ccccc2)cc1 | s | 719
CC(C)c1cccc(NC(=O)C2CCc3nc(N4CCOCC4)ncc3C2)c1 (stereo not given) | s | 755
Cc1noc(COC2CCN(C(=O)Cc3c[nH]c4ccccc34)CC2)n1 | s | 724
Cc1ccc(C(=O)N2CCN(c3ccc(=O)n(-c4cccc(Cl)c4)n3)CC2)s1 | s | 891
CC1CCN(Cc2nc(Cn3ccn4nc(-c5ccc(F)cc5)cc4c3=O)no2)CC1 | s | 703
CC(C)c1ccc(NC(=O)Cc2nnc(-c3ccc4ncccc4c3)o2)cc1 | s | 854
COc1cccc(C(=O)NCC(C)(O)C2CC2)c1OC (stereo not given) | s | 669
CCC(=O)N1CCc2cc(CNS(=O)(=O)c3ccccc3)ccc21 | s | 790
COc1cc(COc2cc(N)c(Cl)cc2C(=O)CCC2CCN(CCNS(C)(=O)=O)CC2)cc(OC)c1 | s | 761
COc1cc2c(cc1CNC(=O)COc1ccc(Cl)c(C)c1)OCCCO2 | s | 1010
O=C(c1ccc(Cl)cc1Cl)N1CCN(c2cc(-c3cccs3)[nH]n2)CC1 | s | 888
Cc1ccc(N2CCN(C(=O)CN3CCN(Cc4ccc(F)cc4)C3=O)CC2)cc1 | s | 837
O=c1c2cc(-c3ccccc3)nn2ccn1Cc1noc(CN2CCCCC2)n1 | s | 651
